- test-protocol: JC-1 mitochondrial signal, unstimulated adipocytes – cell-based, JC-1 fluorescence, 3T3-L1 adipocytes, 24 h, 100 nL compound, profiling panel (AID 1168); further: test concentration not given here
- condition: JC-1 mitochondrial fluorescence, higher = more signal, called active from +8 up or from −8 down
assay-endpoint: z-score
Enter the number alone.

[
  {
    "compound": "CCCN1C(=O)[C@]2(CCC(=O)OC(C)(C)C)N=C(c3ccc(OCCCO)cc3)O[C@@H]2c2ccccc21",
    "endpoint-result": 2.01
  },
  {
    "compound": "O=C1NC(=O)C2C1C=CC(C(O)c1ccc(B(O)O)cc1)N2Nc1ccc(Cl)cc1Cl (stereo unspecified)",
    "endpoint-result": -1.12
  },
  {
    "compound": "O=C(NCc1ccccc1)[C@@H]1c2ccccc2C(=O)N(Cc2ccc(OC(F)(F)F)cc2)[C@H]1c1ccc(CO)cc1",
    "endpoint-result": -0.602
  },
  {
    "compound": "COC(=O)C1(Cc2ccccc2)C=C2C(=C(C)C(=O)C2C)CN1 (stereo unspecified)",
    "endpoint-result": -0.046
  }
]

Quick note, z-score for O=C(NC1CC1)[C@@H]1c2ccccc2C(=O)N(CC23CC4CC(CC(C4)C2)C3)[C@H]1c1ccc(CO)cc1 landed at 0.397

For record CCCN1C(=O)[C@@]2(c3ccc([N+](=O)[O-])cc3)CC(=O)N(CC34CC5CC(CC(C5)C3)C4)[C@@H]2c2ccc(CO)cc21 the listed z-score is -0.656

Record COC(=O)[C@@]1(Cc2ccc(OC)cc2)[C@H]2c3cc(C(=O)N4CCCC4)n(Cc4ccc(C(F)(F)F)nc4)c3C[C@H]2CN1C(=O)c1ccccc1 . Reported z-score: -1.59

// recorded z-score for CCOC(=O)C[C@H]1[C@H](OC(=O)Cc2ccc3c(c2)OCO3)[C@@H](NC(=O)Cc2ccc(OC)cc2)c2cc(OCCCO)ccc2N1C(=O)Cc1ccc(OC)cc1 : 0.376

The reported value for N#Cc1ccc(C(O)C2C=CC3C(=O)NC(=O)C3N2Nc2ccc(Cl)cc2Cl)cc1 (stereo unspecified) in terms of z-score is -1.05

z-score measured on C[C@@H]1ON(c2ccccc2)[C@H](c2ccccc2)[C@H]1C(=O)O = -0.212

Record C[C@@H]1ON(c2ccc(I)cc2)[C@H](c2cccc(NC(=O)OCC3c4ccccc4-c4ccccc43)c2)[C@H]1C(=O)N1C(=O)OC[C@H]1Cc1ccccc1 , field z-score: 1.54

For record CC(C)(C)OC(=O)CC[C@@]1(C(=O)NCCN2CCOCC2)N=C(c2ccc(OCCCO)cc2)O[C@@H]1c1ccccc1CN=[N+]=[N-] the listed z-score is -0.916

The measured z-score associated with COc1ccc([Si](C)(C)[C@H]2[C@H](CCO)O[C@@]3(C(=O)N(Cc4cccc(N5C(=O)c6ccccc6Oc6ccccc65)c4)c4ccccc43)[C@@H]2C)cc1 reads 2.27
